# study-system: erythrocytes infected with P. falciparum field isolate 10936
# test-description: flow cytometry, staining of IEs
Recorded % parasite recognition for the following binders
Please give a number only; it is taken to be in %.

For reference, reported % parasite recognition for MGC4 (antibody) VH: EVQLVESGGGLVQPGGSLRLSCEGSGFNSRSYWMTWVRQAPGKGLEWVASINQDGTEKNYVDSVKGRFTISRDSAKNSLYLQMSSLRADDTAVYYCARDRFCGGESHLHGEEDLPRPSISAEPDTVIPLGSHVTFVCRGPVGVHTFRLERGWRYNDTEDVSQAGPSESEARFRIDSVREGNAGLYRCIYYIAPKWSEQSDYLELRVKGGDVTWALLTYCGGDGEESDYPMDVWGKGTTVTVSS VL: QTVVTQEPSLTVSPGGTVTLTCASSTGPVTSAYYPNWFQQKPGQAPRSLIYSINKKHSWTPARFSGSLLGGKAALTLSGVQPEDEADYYCLLSCGGAQPWVFGGGTKLTVQ stands at 2.3

% parasite recognition reading for MGD47 (antibody) VH: QVRLQESGPGLVKPSGTLSLTCTVSGGSISGYKWWSWVRQAPGKGLEWIGQVYDDGDTNYNPDLKGRVALSVDKSKSRFSLSLASVTAADTAIYFCATISPLRPQSDTGDLPRPSISAEPGTAIPLGSQVTFVCRGPIGVQTFRLERESRALYNDSEDVSQVSPSASEARFRIDSVSEGNAGPYRCIYYKARRWSDQSDYLELLVKGEDVTWALPQSQLAPRACPQEDLNISTDIFSTNVWGKGTTVTVSS VL: AIRMTQSPASLSASVGDRVTITCRTSQDVGNYLDWYQQKPGKAPKLLIHGASTLQAGVPSRFNGSGSGTDFTLGISCVQSGDFAIYYCQQYYTSPPVFGQGTRLEIK : 11.3
